Origin of values: patent US8168647B2

- Tested on: sarcoma 180
- assay_procedure: In vivo antitumor assay on Sarcoma 180 (S180) in mice
- experimental_context: 20 mg/kg, iv, d 1, 4
The entries below are paired with their reported Tumor Weight (g) X ± SD.

CC[C@]12C=CCN3CC[C@@]4(c5cc([C@@]6(C(=O)OC)C[C@@H]7C[C@@H](C(C)(F)F)CN(CCc8c6[nH]c6ccccc86)C7)c(OC)cc5N(C)[C@H]4C(O)(COC(=O)C4CC4)[C@@H]1OC(C)=O)[C@@H]32 (stereo partly drawn) :: 1.20 ± 0.09 g
CC[C@]12C=CCN3CC[C@@]4(c5cc([C@@]6(C(=O)OC)C[C@@H]7C[C@@H](C(C)(F)F)CN(CCc8c6[nH]c6ccccc86)C7)c(OC)cc5N(C)[C@H]4C(O)(CNC(=O)OCC(C)C)[C@@H]1OC(C)=O)[C@@H]32 (stereo partly drawn) :: 1.55 ± 0.34 g

Then this compound:
**Q:** Provide one value: measured Tumor Weight (g) X ± SD of CC[C@]12C=CCN3CC[C@@]4(c5cc([C@@]6(C(=O)OC)C[C@@H]7C[C@@H](C(C)(F)F)CN(CCc8c6[nH]c6ccccc86)C7)c(OC)cc5N(C)[C@H]4C(O)(CNC(=O)OC)[C@@H]1OC(C)=O)[C@@H]32 (stereo partly drawn)
**A:** 1.47 ± 0.15 g

----------
- Test system: sarcoma 180
- assay_procedure: In vivo antitumor assay on Sarcoma 180 (S180) in mice
- experimental_context: 20 mg/kg, iv, d 1, 4
assay_readout: Average weight (g) At sacrifice
Use g as the unit, but write only the number.

For orientation, consider the following solved cases.
CCC(=O)NCC1(O)[C@H](OC(C)=O)[C@]2(CC)C=CCN3CC[C@@]4(c5cc([C@@]6(C(=O)OC)C[C@@H]7C[C@@H](C(C)(F)F)CN(CCc8c6[nH]c6ccccc86)C7)c(OC)cc5N(C)[C@@H]14)[C@@H]32 (some centres unmarked) :: 30.1
CC[C@]12C=CCN3CC[C@@]4(c5cc([C@@]6(C(=O)OC)C[C@@H]7C[C@@H](C(C)(F)F)CN(CCc8c6[nH]c6ccccc86)C7)c(OC)cc5N(C)[C@H]4C(O)(COC(C)=O)[C@@H]1OC(C)=O)[C@@H]32 (some centres unmarked) :: 30.9
CC[C@]12C=CCN3CC[C@@]4(c5cc([C@@]6(C(=O)OC)C[C@@H]7C[C@@H](C(C)(F)F)CN(CCc8c6[nH]c6ccccc86)C7)c(OC)cc5N(C)[C@H]4C(O)(CNC(=O)OCC(C)C)[C@@H]1OC(C)=O)[C@@H]32 (some centres unmarked) :: 34.5

**Q:** Provide one value: measured Average weight (g) At sacrifice of CC[C@]12C=CCN3CC[C@@]4(c5cc([C@@]6(C(=O)OC)C[C@@H]7C[C@@H](C(C)(F)F)CN(CCc8c6[nH]c6ccccc86)C7)c(OC)cc5N(C)[C@H]4C(O)(CNC(=O)OC)[C@@H]1OC(C)=O)[C@@H]32 (some centres unmarked)
**A:** 33.0

**Q:** Provide one value: measured Average weight (g) At sacrifice of CC[C@]12C=CCN3CC[C@@]4(c5cc([C@@]6(C(=O)OC)C[C@@H]7C[C@@H](C(C)(F)F)CN(CCc8c6[nH]c6ccccc86)C7)c(OC)cc5N(C)[C@H]4C(O)(COC(=O)C4CC4)[C@@H]1OC(C)=O)[C@@H]32 (some centres unmarked)
**A:** 31.4

----------
- Test system: sarcoma 180
- assay_procedure: In vivo antitumor assay on Sarcoma 180 (S180) in mice
- experimental_context: 40 mg/kg, iv, d 1, 4
assay_readout: Average weight (g) At sacrifice
Use g as the unit, but write only the number.

**Q:** Provide one value: measured Average weight (g) At sacrifice of CC[C@]12C=CCN3CC[C@@]4(c5cc([C@@]6(C(=O)OC)C[C@@H]7C[C@@H](C(C)(F)F)CN(CCc8c6[nH]c6ccccc86)C7)c(OC)cc5N(C)[C@H]4C(O)(CNC(=O)OC)[C@@H]1OC(C)=O)[C@@H]32 (stereo partly drawn) [BM79]
**A:** 29.5

**Q:** Provide one value: measured Average weight (g) At sacrifice of CCC(=O)NCC1(O)[C@H](OC(C)=O)[C@]2(CC)C=CCN3CC[C@@]4(c5cc([C@@]6(C(=O)OC)C[C@@H]7C[C@@H](C(C)(F)F)CN(CCc8c6[nH]c6ccccc86)C7)c(OC)cc5N(C)[C@@H]14)[C@@H]32 (stereo partly drawn) [BM78]
**A:** 29.0

**Q:** Provide one value: measured Average weight (g) At sacrifice of CC[C@]12C=CCN3CC[C@@]4(c5cc([C@@]6(C(=O)OC)C[C@@H]7C[C@@H](C(C)(F)F)CN(CCc8c6[nH]c6ccccc86)C7)c(OC)cc5N(C)[C@H]4C(O)(CNC(=O)OCC(C)C)[C@@H]1OC(C)=O)[C@@H]32 (stereo partly drawn) [BM80]
**A:** 32.5

**Q:** Provide one value: measured Average weight (g) At sacrifice of CC[C@]12C=CCN3CC[C@@]4(c5cc([C@@]6(C(=O)OC)C[C@@H]7C[C@@H](C(C)(F)F)CN(Cc8c6[nH]c6ccccc86)C7)c(OC)cc5N(C)[C@H]4[C@@](O)(C(=O)OC)[C@@H]1OC(C)=O)[C@@H]32 [Vinflunine, reference compound]
**A:** 28.4

**Q:** Provide one value: measured Average weight (g) At sacrifice of CC[C@]12C=CCN3CC[C@@]4(c5cc([C@@]6(C(=O)OC)C[C@@H]7C[C@@H](C(C)(F)F)CN(CCc8c6[nH]c6ccccc86)C7)c(OC)cc5N(C)[C@H]4C(O)(COC(C)=O)[C@@H]1OC(C)=O)[C@@H]32 (stereo partly drawn) [BM75]
**A:** 33.3

**Q:** Provide one value: measured Average weight (g) At sacrifice of CC[C@]12C=CCN3CC[C@@]4(c5cc([C@@]6(C(=O)OC)C[C@@H]7C[C@@H](C(C)(F)F)CN(CCc8c6[nH]c6ccccc86)C7)c(OC)cc5N(C)[C@H]4C(O)(COC(=O)C4CC4)[C@@H]1OC(C)=O)[C@@H]32 (stereo partly drawn) [BM76]
**A:** 31.8
